MEASUREMENT_TYPE: melting point

Some compounds with recorded melting point:
COC(=O)c1c(Br)ccc2[nH]ncc12	164 to 165 °C
Cc1c(C)n(CC=Cc2ccccc2)c2c(OCc3ccccc3)nncc12	132 to 134 °C
COc1c(C(N)=O)oc2c3ccccc3n(C)c12	174 to 177 °C
O=C(c1ccc(F)cc1)c1nccc(O)c1O	249 to 251 °C
CC(C)(N)c1ccc(-c2nc(Nc3ccc(CCN4CCOCC4)cc3)ncc2C#N)cc1	156 °C
CS(=O)(=O)c1ccc(-c2cnn(-c3cccs3)c(=O)c2-c2ccc(F)cc2)cc1	215 to 217 °C
CC(C)(C)C(O)C(=Cn1ccnc1)Oc1ccc(Cl)cc1 (centres undefined)	141 to 143 °C
O=c1cc2c(nn1-c1ccc(Cl)cc1)-c1cc(Br)sc1CCC2	143 to 144 °C
CCOC(=O)c1cn(Cc2cccnc2)nc1OCc1cccnc1	120 to 121 °C
N#Cc1cnc(Nc2ccc(F)cc2)nc1-c1ccc(N)nc1	289 °C

GET /values?readout=melting point&item= CN(Cc1ccc(Cl)c(Cl)c1)C(=O)C1=C(O)C(=O)N(C2CC2)C1
163 to 164 °C

Query: melting point; subject: CCCOc1cc(CCCOc2c(CC(=O)O)cccc2OC)n(Cc2ccc(C(F)(F)F)cc2)n1
122 to 123 °C

Which melting point value belongs to Cc1nc[nH]c1CSCCNC(=NCCc1ccccc1)NC#N ?
135 to 136 °C

Given CCCCCCCCCCC(=O)NCc1cccc2c1C(=O)N(C1CCC(=O)NC1=O)C2=O (centres undefined) , state its recorded melting point.
138 to 139 °C

I would be grateful if you could share the reported melting point for COc1ccc(N2CCN(c3c(C)c(C)c4c(c3C)C(OCc3ccccn3)C(C)(C)O4)CC2)cc1 (centres undefined) .
120 to 121 °C

Requested field: melting point. Item: O=C1COCCN1c1ccc(N2C[C@@H](CCl)OC2=O)cc1
143 to 146 °C

So what's the measured melting point for this one? CC1CNc2cc(C3=NNC(=O)CC3)ccc2O1 (centres undefined)
294 to 296 °C

Which value of melting point has been reported for CCOC(=O)c1ccc(NCC(C)Oc2ccc(F)cc2)cc1 (centres undefined) in the records?
96 to 98 °C

I have this compound here, [N-]=[N+]=NC1(CO)OC(n2ccc(=O)[nH]c2=O)C(O)C1O (centres undefined) , and I need its recorded melting point.
86 to 93 °C

----------
Catalogue of melting point values

CC(=O)NCc1ccc2c(c1)N(C1CCN(CCc3ccc(F)cc3)CC1)CC2(C)C	131 to 133 °C
C/C(=C\c1ccc(O)cc1)c1ccc2c(c1)C(C)(C)CCC2(C)C	138 to 140 °C
Cc1ccc(NC(=O)c2cc([N+](=O)[O-])ccc2NC(=O)CF)c(C)c1	227 to 229 °C
COc1ccccc1-c1c(CC(=O)O)oc(=O)c2ccccc12	143 to 144 °C
N#Cc1ccc(NC(=N)Nc2ccc(C#N)cc2)cc1	195 to 200 °C
CCCCCCCCCCCCCCCCCCOc1ccc(C(=O)Nc2ccc(O)cc2)cc1	193 °C

Continue with the next compound.
Need melting point, item O=Nc1c(O)cc(N2CCCCC2)c2oc3ccccc3c12
181 to 185 °C

----------
melting point for assorted molecules

Solved cases (4 shown):
C/C(=N\OCCN1CCOCC1)[C@H]1CC[C@H]2[C@@H]3CCC4=CC(=O)CC[C@]4(C)[C@H]3CC[C@]12C	107 to 108 °C
CC1(c2ccc(F)cc2)NOCC1CN(O)C(N)=O (stereo not given)	135 to 137 °C
O=c1ccc2ccc(CO)cc2o1	116 to 117 °C
COc1cccc2c1CC1OC1C2 (stereo not given)	49.5 to 50.5 °C

Given CCCCCCCNC(=O)Nc1ccccc1C(=O)NC1CCN(C(=O)Oc2ccccc2)CC1 , state its recorded melting point.
142 to 144 °C

Recorded melting point for CC1CC2C3CC(Cl)C4=CC(=O)C=CC4(C)C3C(O)CC2(C)C1C(=O)CO (stereo not given) , please?
128 °C

Quick one: melting point for COC(=O)C1=C(C)Nc2ccccc2NC1c1ccccc1[N+](=O)[O-] (stereo not given) ?
190 to 192 °C

Suppose we examine the molecule CCCn1c(=O)c2nc(CC(C)c3ccccc3)[nH]c2n(CCC)c1=O (stereo not given) ; what melting point value has been reported?
136 to 137 °C

----------
Listing of entries alongside the reported melting point.

Examples with answers:
CCOC(=O)CCCCOc1ccc(OCC(F)(F)F)cc1C(=O)NCC1CCCCN1 (centres undefined)	100 to 102 °C
COc1ccc(-n2cnc(-c3cc(OC)cc(OC)c3)c2-c2ccc(OC)c(O)c2)cc1	131 to 134 °C
COc1cc2c(cc1OC)CCCC(C(=O)N1CCN(C(=S)c3cc(OC)c(OC)c(OC)c3)CC1)=C2	172 to 173 °C
COC(=O)C1C(OC)=CCc2ccc(OC)cc21 (centres undefined)	90 to 91 °C

GET /values?readout=melting point&item= O=[N+]([O-])c1ccc(OC[C@@H]2CCCN2c2ccc3ccccc3n2)cc1
118 to 120 °C

I would be grateful if you could share the reported melting point for COC(=O)C(NS(=O)(=O)c1ccc(-c2ccc(NC(=O)c3oc4cccc(C5COC(C)(C)O5)c4c3C)cc2)cc1)C(C)C (centres undefined) .
192 to 194 °C

What does the data say about its melting point? Entry: COc1cc2[nH]c(=O)c3c(c2cc1OC)CCN(CCN1CCCCC1)C3
185 to 188 °C

----------
MEASUREMENT_TYPE: melting point

Answered examples (5):
COc1cc(C(F)(F)F)nc2c(Cl)ccc(F)c12	198 to 200 °C
C#CCn1c2ccccc2c2sccc(=O)c21	144 °C
COc1nc(NC(=O)NS(=O)(=O)CC(C)Cl)nc(OC)n1 (configuration not stated)	139 to 141 °C
CC1c2cccc3c2N(CC3)c2ccccc2N1CC#N (configuration not stated)	148 to 150 °C
CCOc1cc(-c2cc(C(F)(F)F)n3ncc(C(=O)Nc4cccc(S(N)(=O)=O)c4)c3n2)ccc1C(F)(F)F	253 °C

Can you share its melting point? I mean this compound: O=C1C[C@@H](C(=O)O)N(C(=O)OCc2ccccc2)C1
99 to 101 °C

Which melting point value belongs to O=S1(=O)CCON=C1c1nc2ccccc2s1 ?
226 to 227 °C

----------
MEASUREMENT_TYPE: melting point (°C)

(A) CC(C)CNC(=O)C(C)(C)N=NC(C)(C)C(=O)NCC(C)C
(B) COc1ccc(N(Cc2ccc(C#N)cc2)n2ccnc2)cc1
Pick the one with the larger melting point: A vs B Label of pick, please.
B

----------
MEASUREMENT_TYPE: melting point

The cases that follow already have their melting point on record.
O=C(O)c1ccc(F)c2c1OCC=C2	187 to 189 °C
CCCCc1cn(-c2ccccc2Cl)c(=O)n1Cc1ccc(-c2ccccc2-c2nnn[nH]2)nc1	81 to 83 °C
NC(=S)NNC(=O)CCCCc1ccccc1	140 to 141 °C
Cc1cc(C)c2c(=O)c([N+](=O)[O-])coc2c1	120 to 125 °C
NC(=O)CN1C(=O)[C@@H](N)[C@H](c2ccccc2)Sc2cc(Cl)ccc21 (relative stereo)	225 to 228 °C
CNC(=O)C(=NO)c1ccccc1C	160 to 161 °C
CCOC(=O)c1cnc2scc(C)n12	45 °C
c1cncc(-c2ccnc3nccn23)c1	162 to 164 °C
CC(C)=CC1CC(C)=C(C)C2C(=O)OC(=O)C12 (stereo unspecified)	78 to 82 °C
CCCC(C(=O)OCC)c1ccc(N2Cc3ccccc3C2=N)cc1 (stereo unspecified)	158 to 160 °C

Which measured melting point value corresponds to NS(=O)(=O)OCCOc1ccc(Cl)cc1 ?
117 to 119 °C

Looking for the measured melting point of CC(C)(O)c1cnn2c(-c3ccc(F)c(-c4ccncc4)c3)cnc2n1 , can you help?
233 to 237 °C

Reported melting point for COC(=O)CC(=O)Nc1cccc(S)c1 : what is it?
52 to 54 °C

Tell me the measured melting point of CC(=O)Nc1nc(CN2CCN(C(c3ccccc3)c3ccccc3)CC2)c(Cl)s1 , please.
227 to 230 °C

Look up melting point: O=C(O)CCCc1cccc2c1OC=CO2
75 to 76 °C

melting point lookup needed for CC(=O)CCc1nc2c(N)nc3ccccc3c2n1CC(C)(C)O , thanks.
181 to 184 °C

Any idea what melting point was measured for O=C(NC1CCN(CCc2ccccc2F)C1)C12CC3CC(CC(C3)C1)C2 (stereo unspecified) ?
106 to 108 °C

// query melting point value for entry CCOCCc1c(-c2ccc(Cl)cc2)nc(N)n2ncnc12
183 to 185 °C

Need melting point, item CCC1=NC(NC(=O)Nc2cccc(C)c2)C(=O)N(CC(=O)N2CCCCCCC2)c2c(C)cccc21 (stereo unspecified)
189 to 190 °C

# lookup: melting point of Cc1ccc2c(Cl)c(Cl)ccc2n1
84 to 85 °C

Fill blank: measured melting point of the molecule CC(C)(CCCCCCCCCCOCc1ccccc1)C(=O)O is ____.
53 to 55 °C

Recorded melting point for N#Cc1cc(F)c(N)c(Br)c1F , please?
106 to 108 °C
